- System: U-87 MG
- experiment-notes: Antiproliferative activity against human U-87 MG cells expressing GLuc assessed as as inhibition of GLuc secretion incubated for 18 hrs by CellTiter-Glo Luminescent Cell Viability Assay
- Type: functional, cell-based
- condition-context: U-87MG ATCC
Positions of bridges follow the written chain, without caps; N, C: chain ends. Non-standard residues stand in square brackets, D forms with d. Residues, ends and D or L forms follow the SMILES beside them. *: point of attachment. NMe2Val = CC(C)[C@@H](C(=O)*)N(C)C; NMeI = CC[C@H](C)[C@H](NC)C(=O)O; NMeT = CN[C@H](C(=O)O)[C@@H](C)O; NMeL = CN[C@@H](CC(C)C)C(=O)O; dHiv = CC(C)[C@@H](O)C(=O)O; NMeA = CN[C@@H](C)C(=O)O; dNMeA = CN[C@H](C)C(=O)O

| compound | inhibition |
| --- | --- |
| CC[C@H](C)[C@H]1C(=O)N[C@@H](C)C(=O)N(C)[C@@H](CC(C)C)C(=O)N[C@@H](Cc2ccc(OC)cc2)C(=O)N(C)[C@H](C)C(=O)O[C@H](C)[C@H](N(C)C(=O)[C@H](CC(C)C)N(C)C(=O)[C@H](C)N(C)C(=O)[C@H](OC(=O)[C@H](C(C)C)N(C)C)C(C)C)C(=O)N(C)[C@@H](C)C(=O)N1C (NMe2Val-[dHiv][NMeA][NMeL][NMeT][NMeA][NMeI]A[NMeL]Y(Me)[dNMeA]; ester 4-C) | Dose-Dependent Effect |
| CC[C@H](C)[C@H]1C(=O)N[C@@H](C)C(=O)N(C)[C@@H](CC(C)C)C(=O)N[C@@H](Cc2ccc(OC)cc2)C(=O)N(C)[C@H](C)CC[C@H](C)[C@H](N(C)C(=O)[C@H](CC(C)C)N(C)C(=O)[C@H](C)N(C)C(=O)[C@H](OC(=O)[C@H](C(C)C)N(C)C)C(C)C)C(=O)N(C)[C@@H](C)C(=O)N1C | Dose-Dependent Effect |
| CC[C@H](C)[C@H]1C(=O)N[C@@H](C)C(=O)N(C)[C@@H](CC(C)C)C(=O)N[C@@H](Cc2ccc(OC)cc2)C(=O)N(C)[C@H](C)C(=O)N[C@H](C)[C@H](N(C)C(=O)[C@H](CC(C)C)N(C)C(=O)[C@H](COC)N(C)C(=O)[C@H](OC(=O)[C@H](C(C)C)N(C)C)C(C)C)C(=O)N(C)[C@@H](COC)C(=O)N1C | Dose-Dependent Effect |
